Assay: microsome metabolite identification / stability, cynomolgus monkey liver microsomes
Type: in vitro ADME
Conditions: 37° C.
Property Name: remaining percentage of the parent nucleus after 60 min (%)
Reply with just the number (in %).

Solved cases (3 shown):
[2H]C([2H])([2H])N1CCC(n2cc(-c3cnc(N)c(OCc4cccc(C#CC(C)(C)O)c4)c3)cn2)CC1; 29.6
[2H]C([2H])([2H])N1CCC(c2ncc(-c3cnc(N)c(OCc4cccc(C#CC(C)(C)O)c4)c3)s2)CC1; 23.4
CN1CCC(n2cc(-c3cnc(N)c(OCc4cccc(C#CC(C)(C)O)c4)c3)cn2)CC1 [Compound A1, reference compound]; 0.36

Please look at the following compound next.
Read off the recorded remaining percentage of the parent nucleus after 60 min for CN1CCC(c2ncc(-c3cnc(N)c(OCc4cccc(C#CC(C)(C)O)c4)c3)s2)CC1 [Compound B1, reference compound]
9.11
